Data export: log10 of IC50 values recorded with Stearoyl-CoA desaturase (Homo sapiens, UniProt O00767).
Sequence (O00767 whole entry): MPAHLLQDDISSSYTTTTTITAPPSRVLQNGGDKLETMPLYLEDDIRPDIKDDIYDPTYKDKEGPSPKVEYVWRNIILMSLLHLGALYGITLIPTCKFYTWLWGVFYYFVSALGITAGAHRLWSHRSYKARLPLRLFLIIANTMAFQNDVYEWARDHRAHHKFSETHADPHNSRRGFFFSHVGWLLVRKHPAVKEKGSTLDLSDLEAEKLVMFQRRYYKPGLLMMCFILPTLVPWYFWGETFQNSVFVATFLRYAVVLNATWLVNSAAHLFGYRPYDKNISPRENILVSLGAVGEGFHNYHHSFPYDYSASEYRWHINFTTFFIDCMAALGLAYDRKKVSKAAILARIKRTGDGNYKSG
property: log10 of IC50 (log10 of the value in nM)

O=C(NCc1ccncc1)c1nccnc1NCC(=O)N1CCC(Oc2ccccc2Cl)CC1 : 2.04
CCCNC(=O)c1ncccc1NCC(=O)N1CCC(Oc2ccccc2C(F)(F)F)CC1 : 2.59
CNC(=O)c1nccnc1NCC(=O)N1CCC(Oc2ccccc2Br)CC1 : 1.76
O=C(NCCO)c1nccnc1NCC(=O)N1CCC(Oc2ccccc2Cl)CC1 : 2.00
CNC(=O)c1nccnc1NCC(=O)N1CCC(Oc2cc(Cl)ccc2Cl)CC1 : 1.58

----------
measured.target: Stearoyl-CoA desaturase (Homo sapiens)
The threshold is 0.2 µM. Values of IC50 beneath it are tagged condition met; values meeting or exceeding it are tagged condition not met.

O=C(CNc1nccnc1Cl)N1CCC(Oc2ccccc2Cl)CC1 : condition met
NC(=O)c1ncccc1NCC(=O)N1CCC(Oc2ccccc2C(F)(F)F)CC1 : condition met
O=Cc1nccnc1NCC(=O)N1CCC(Oc2ccccc2Cl)CC1 : condition not met
CNC(=O)c1nccnc1NCC(=O)N1CCC(C(=O)c2ccccc2)CC1 : condition not met
CNC(=O)c1nccnc1NCC(=O)N1CCC(Oc2ccccc2Cl)CC1 : condition met
O=C(NCc1cccnc1)c1nccnc1NCC(=O)N1CCC(Oc2ccccc2Cl)CC1 : condition met
O=C(NCCc1ccccc1)c1ncccc1NCC(=O)N1CCC(Oc2ccccc2C(F)(F)F)CC1 : condition not met
O=C(Nc1ccccc1)c1nccnc1NCC(=O)N1CCC(Oc2ccccc2Cl)CC1 : condition not met
O=C(NCc1ccccc1)c1ncccc1NCC(=O)N1CCC(Oc2ccccc2Cl)CC1 : condition not met
O=C(NCc1ccccc1)c1cccc(NCC(=O)N2CCC(Oc3ccccc3C(F)(F)F)CC2)n1 : condition not met
